Some binders, each annotated with its measured optical density.
# experimental-system: Mouse ACVR2A (mouse, UniProt P27038 20-135, limits assumed); further: test concentration or dose not given here
# Sequence (P27038 20-135 limits assumed): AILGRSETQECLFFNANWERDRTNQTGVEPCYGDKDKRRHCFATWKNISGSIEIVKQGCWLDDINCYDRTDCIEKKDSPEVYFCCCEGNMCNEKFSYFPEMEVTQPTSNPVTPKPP
# measurement-notes: ELISA
experimental-endpoint: optical density (OD)

binder="365_A03 (antibody, V domains shown, VH/VL only) VH: EVQLLESGGGLVQPGGSLRLSCAASGFTFSSYSMNWVRQAPGKGLEWVAGINYNSGYKGYADSVKGRFTISRDNSKNTLYLQMNSLRAEDTAVYYCARSANWHDTALDYWGQGTLVTVSS VL: DIQMTQSPSSLSASVGDRVTITCRASQSILSYLNWYQQKPGKAPKLVIYAVTSRASGVPSRFSGSGSGTDFTLTISSLQPEDFATYYCQQSYDSPLTFGGGTKVEIK" value_observed=3.24
binder="371_H11 (antibody, V domains shown, VH/VL only) VH: EVQLLESGGGLVQPGGSLRLSCAASGFTFSSYSMNWVRQAPGKGLEWVSGINYNGGYKGYADSVKGRFTISRDNSKNTLYLQMNSLRAEDTAVYYCARGATWHDTHLDYWGQGTLVTVSS VL: DIQMTQSPSSLSASVGDRVTITCRASQSILTYLNWYQQKPGKAPKLLIYATTSRHSGVPSRFSGSGSGTDFTLTISSLQPEDFATYYCQQSYESPLTFGGGTKVEIK" value_observed=3.12
